The entries below are paired with their reported MIC.
# Tested on: M. pneumoniae Numata
Return type: number; implicit unit µg/mL.

Example results:
>  <compound>
CCC(=O)O[C@@H]1CC(=O)O[C@H](C)C/C=C/C=C/[C@H](O)[C@H](C)C[C@H](CC=O)[C@H](O[C@@H]2O[C@H](C)[C@@H](O[C@H]3C[C@@](C)(OC)[C@@H](OCCC(C)C)[C@H](C)O3)[C@H](N(C)C)[C@H]2O)[C@H]1OC [(3)]

>  <result.value>
0.025

$$$$
>  <compound>
CCCCCCO[C@H]1[C@H](C)O[C@@H](O[C@H]2[C@H](N(C)C)[C@@H](O)[C@H](O[C@H]3[C@@H](CC=O)C[C@@H](C)[C@@H](O)/C=C/C=C/C[C@@H](C)OC(=O)C[C@@H](OC(=O)CC)[C@@H]3OC)O[C@@H]2C)C[C@@]1(C)OC [(5)]

>  <result.value>
0.05

$$$$
>  <compound>
CCC(=O)O[C@@H]1CC(=O)O[C@H](C)C/C=C/C=C/[C@H](O)[C@H](C)C[C@H](CC=O)[C@H](O[C@@H]2O[C@H](C)[C@@H](O[C@H]3C[C@@](C)(O)[C@@H](OC(=O)CC)[C@H](C)O3)[C@H](N(C)C)[C@H]2O)[C@H]1OC [MDM, midecamycin A1, reference compound]

>  <result.value>
0.05

$$$$

Now for another entry.
Give M. pneumoniae Numata MIC for the following compound: CCCCO[C@H]1[C@H](C)O[C@@H](O[C@H]2[C@H](N(C)C)[C@@H](O)[C@H](O[C@H]3[C@@H](CC=O)C[C@@H](C)[C@@H](O)/C=C/C=C/C[C@@H](C)OC(=O)C[C@@H](OC(=O)CC)[C@@H]3OC)O[C@@H]2C)C[C@@]1(C)OC [(2)]
0.05

---

# Test system: B. catarrhalis W-0506
# protocol: MIC, agar plate dilution method
# Format: cell-based
# measurement.conditions: Moraxella catarrhalis, W0506, 37° C., 20 hours, read-out: Antimicrobial activity (MIC)
measurement.label: MIC

>  <compound>
CCCCO[C@H]1[C@H](C)O[C@@H](O[C@H]2[C@H](N(C)C)[C@@H](O)[C@H](O[C@H]3[C@@H](CC=O)C[C@@H](C)[C@@H](O)/C=C/C=C/C[C@@H](C)OC(=O)C[C@@H](O)[C@@H]3OC)O[C@@H]2C)C[C@@]1(C)OC [(10)]

>  <measurement.label>
MIC

>  <result.value>
1.56 µg/mL

$$$$

Retrieve MIC measured for CCCCCO[C@H]1[C@H](C)O[C@@H](O[C@H]2[C@H](N(C)C)[C@@H](O)[C@H](O[C@H]3[C@@H](CC=O)C[C@@H](C)[C@@H](O)/C=C/C=C/C[C@@H](C)OC(=O)C[C@@H](O)[C@@H]3OC)O[C@@H]2C)C[C@@]1(C)OC [(11)] and print it.
0.78 µg/mL

Retrieve MIC measured for CCC(=O)O[C@@H]1CC(=O)O[C@H](C)C/C=C/C=C/[C@H](O)[C@H](C)C[C@H](CC=O)[C@H](O[C@@H]2O[C@H](C)[C@@H](O[C@H]3C[C@@](C)(OC)[C@@H](OCCC(C)C)[C@H](C)O3)[C@H](N(C)C)[C@H]2O)[C@H]1OC [(3)] and print it.
1.56 µg/mL

Retrieve MIC measured for CO[C@@H]1[C@@H](O[C@@H]2O[C@H](C)[C@@H](O[C@H]3C[C@@](C)(OC)[C@@H](OCCC(C)C)[C@H](C)O3)[C@H](N(C)C)[C@H]2O)[C@@H](CC=O)C[C@@H](C)[C@@H](O)/C=C/C=C/C[C@@H](C)OC(=O)C[C@H]1O [(12)] and print it.
0.39 µg/mL

---

# protocol: concentration in serum after oral administration to mice, bioassay
# Type: in vivo, mice (Jcl:ICR)
# measurement.conditions: mouse, serum, 200 mg/kg, M. luteus bioassay, read-out: maximum concentration in the serum
measurement.label: Cmax (ng/mL)
Return type: number; implicit unit ng/mL.

>  <molecule>
CCC(=O)O[C@@H]1CC(=O)O[C@H](C)C/C=C/C=C/[C@H](O)[C@H](C)C[C@H](CC=O)[C@H](O[C@@H]2O[C@H](C)[C@@H](O[C@H]3C[C@@](C)(O)[C@@H](OC(=O)CC)[C@H](C)O3)[C@H](N(C)C)[C@H]2O)[C@H]1OC [MDM, midecamycin A1, reference compound]

>  <Cmax (ng/mL)>
5200

$$$$

Retrieve Cmax measured for CCC(=O)O[C@@H]1CC(=O)O[C@H](C)C/C=C/C=C/[C@H](O)[C@H](C)C[C@H](CC=O)[C@H](O[C@@H]2O[C@H](C)[C@@H](O[C@H]3C[C@@](C)(OC)[C@@H](OCCC(C)C)[C@H](C)O3)[C@H](N(C)C)[C@H]2O)[C@H]1OC and print it.
11300

Retrieve Cmax measured for CO[C@@H]1[C@@H](O[C@@H]2O[C@H](C)[C@@H](O[C@H]3C[C@@](C)(OC)[C@@H](OCCC(C)C)[C@H](C)O3)[C@H](N(C)C)[C@H]2O)[C@@H](CC=O)C[C@@H](C)[C@@H](O)/C=C/C=C/C[C@@H](C)OC(=O)C[C@H]1O and print it.
11500

Retrieve Cmax measured for CCC(=O)O[C@@H]1CC(=O)O[C@H](C)C/C=C/C=C/[C@H](OC(C)=O)[C@H](C)C[C@H](CC=O)[C@H](O[C@@H]2O[C@H](C)[C@@H](O[C@H]3C[C@@](C)(OC(C)=O)[C@@H](OC(=O)CC)[C@H](C)O3)[C@H](N(C)C)[C@H]2O)[C@H]1OC [MOM, miokamycin, reference compound] and print it.
6200

Retrieve Cmax measured for CCCC(=O)O[C@H]1[C@H](C)O[C@@H](O[C@H]2[C@H](N(C)C)[C@@H](O)[C@H](O[C@H]3[C@@H](CC=O)C[C@@H](C)[C@@H](O)/C=C/C=C/C[C@@H](C)OC(=O)C[C@@H](O)[C@@H]3OC)O[C@@H]2C)C[C@@]1(C)OC(=O)CC [RKM, rokitamycin, reference compound] and print it.
2900

---

# Test system: M. luteus ATCC9341
# protocol: MIC, agar plate dilution method
# Type: cell-based
# measurement.conditions: Micrococcus luteus; M. luteus ATCC9341; 37° C., 20 hours; read-out: Antimicrobial activity (MIC)
measurement.label: MIC (µg/mL)
Return type: number; implicit unit µg/mL.

Retrieve MIC measured for CCC(=O)O[C@@H]1CC(=O)O[C@H](C)C/C=C/C=C/[C@H](O)[C@H](C)C[C@H](CC=O)[C@H](O[C@@H]2O[C@H](C)[C@@H](O[C@H]3C[C@@](C)(O)[C@@H](OC(=O)CC)[C@H](C)O3)[C@H](N(C)C)[C@H]2O)[C@H]1OC [MDM, midecamycin A1, reference compound] and print it.
0.05

Retrieve MIC measured for CCC(=O)O[C@@H]1CC(=O)O[C@H](C)C/C=C/C=C/[C@H](O)[C@H](C)C[C@H](CC=O)[C@H](O[C@@H]2O[C@H](C)[C@@H](O[C@H]3C[C@@](C)(OC)[C@@H](OCCC(C)C)[C@H](C)O3)[C@H](N(C)C)[C@H]2O)[C@H]1OC [(3)] and print it.
0.05

Retrieve MIC measured for CCO[C@]1(C)C[C@H](O[C@H]2[C@H](N(C)C)[C@@H](O)[C@H](O[C@H]3[C@@H](CC=O)C[C@@H](C)[C@@H](O)/C=C/C=C/C[C@@H](C)OC(=O)C[C@@H](O)[C@@H]3OC)O[C@@H]2C)O[C@@H](C)[C@@H]1OCCC(C)C [(14)] and print it.
0.05

---

# Tested on: S. aureus 209P JC-1
# protocol: MIC, agar plate dilution method
# Type: cell-based
# measurement.conditions: Staphylococcus aureus; S. aureus 209P JC-1; 37° C., 20 hours; read-out: Antimicrobial activity (MIC)
measurement.label: MIC (µg/mL)
Return type: number; implicit unit µg/mL.

Example results:
>  <compound>
CCCCO[C@H]1[C@H](C)O[C@@H](O[C@H]2[C@H](N(C)C)[C@@H](O)[C@H](O[C@H]3[C@@H](CC=O)C[C@@H](C)[C@@H](O)/C=C/C=C/C[C@@H](C)OC(=O)C[C@@H](O)[C@@H]3OC)O[C@@H]2C)C[C@@]1(C)OC [(10)]

>  <result.value>
0.1

$$$$
>  <compound>
CCC(=O)O[C@@H]1CC(=O)O[C@H](C)C/C=C/C=C/[C@H](O)[C@H](C)C[C@H](CC=O)[C@H](O[C@@H]2O[C@H](C)[C@@H](O[C@H]3C[C@@](C)(O)[C@@H](OC(=O)CC)[C@H](C)O3)[C@H](N(C)C)[C@H]2O)[C@H]1OC [MDM, midecamycin A1, reference compound]

>  <result.value>
0.39

$$$$

Now for another entry.
Retrieve MIC measured for CCCO[C@H]1[C@H](C)O[C@@H](O[C@H]2[C@H](N(C)C)[C@@H](O)[C@H](O[C@H]3[C@@H](CC=O)C[C@@H](C)[C@@H](O)/C=C/C=C/C[C@@H](C)OC(=O)C[C@@H](O)[C@@H]3OC)O[C@@H]2C)C[C@@]1(C)OC [(9)] and print it.
0.2
